- test system: PRKCG (human) (UniProt P05129)
- protocol summary: radiometric filter-binding kinase assay, Kinase HotSpot
- measurement parameters: compound 0.5 µM; ATP 10 µM
Task for the reader: assign each of the following molecules its reported residual activity.
Number only, in %; omit the unit.

Q: So what's the measured residual activity for this one? CC(C)n1cnc2c(Nc3cccc(Cl)c3)nc(NCCO)nc21
Ans: 93.6

Q: Another molecule: CC(C)(C)c1nc2c3ccc(F)cc3c3c(=O)[nH]ccc3c2[nH]1
Ans: 79.9

Q: Another molecule: O=c1cc(N2CCNCC2)oc2c(-c3ccccc3)cccc12
Ans: 96.1

Q: Another molecule: COc1ccc(-c2cnc3c(-c4ccsc4)cnn3c2)cc1
Ans: 112

Q: Another molecule: O=C(NC(NC(=S)Nc1ccc(F)c([N+](=O)[O-])c1)C(Cl)(Cl)Cl)C(c1ccccc1)c1ccccc1 (stereo unspecified)
Ans: 99.8

Q: Another molecule: Clc1ccc(Nc2nnc(Cc3ccncc3)c3ccccc23)cc1
Ans: 93.3

Q: Another molecule: COc1cc2ncnc(Nc3ccc(F)c(Cl)c3)c2cc1OCCCN1CCOCC1
Ans: 84.2

Q: Another molecule: CCN1/C(=C/C(C)=O)Sc2ccc(OC)cc21
Ans: 75.4

Q: Another molecule: Cc1ccc(NC(=O)c2ccc(CN3CCN(C)CC3)cc2)cc1Nc1nc(-c2cccnc2)cs1
Ans: 95.8

Q: Another molecule: O=C1Cc2c([nH]c3ccc([N+](=O)[O-])cc23)-c2ccccc2N1
Ans: 92.5

Q: Another molecule: O=C1Nc2ccccc2/C1=C\c1c(Cl)[nH]c2ccccc12
Ans: 89.2
